meta.source: PubChem BioAssay (NCI)

- Tested on: SK-OV-3 ovarian
- assay.remarks: NCI-60 one-dose screen, 48 h
- measurement.conditions: 10 µM
- Protocol: Growth inhibition of the SK-OV-3 human tumor cell line is measured as a screen for anti-cancer activity. Cells are grown in 96 well plates and exposed to the test compound for 48 hours. Compounds are tested at a single concentration, which is 10^-5 M for most compounds. The reported endpoint is percent growth (GI% or GIPRCNT), where numbers from 0 - 100% represent growth inhibition, and numbers from -100% - 0 represent cell death. For example, a value of 40 represents 60% growth inhibition. […]
This is part of a sample that, as a whole, favours compounds with a hit. Of some 83,000 tested, about 20% had one in any assay. The source made the active and inactive calls. How the source made its calls: active means growth percent below 10; inactive means the rest.
Select the correct class. Options are active, inactive and nothing else.

In [3]: df
Out[3]:
                                   compound     group
0  CCOC(=O)c1cc(C(=O)c2cc(OC)cc(OC)c2)n2nc(C)ccc12    active
1  CC(C)(C)OC(=O)CN1CCc2c(sc3ncnc(N/N=C/c4ccccc4Br)c23)C1  inactive

Problem: // param item: CCOC(=O)c1cc(C(=O)c2cc(OC)c(OC)c(OC)c2)n2ccc(-c3cc[n+](CC(=O)c4cc(OC)c(OC)c(OC)c4)cc3)cc12 ; yields the recorded call
Result: inactive

Problem: State the result this test recorded for CS(=O)(=O)c1nccc(-c2c(-c3cccc(OCCN4CCOCC4)c3)nc3sccn23)n1 .
Result: inactive

Problem: Each compound tested received a call. Report the one for CC(C)N(CCOc1ccc(-c2nc3sccn3c2-c2ccnc(S(C)(=O)=O)n2)cc1)C(C)C .
Result: inactive

Problem: Field: outcome | Entry: C1CN(CC2CCC(CN3CCOCC3)O2)CCO1 (stereo not given)
Result: inactive

Problem: Which outcome did this test record for the compound Cc1ccc2nc(Cl)c(-c3nc4ccccc4o3)cc2c1 ?
Result: inactive

Problem: What classification did Fc1ccc2[nH]cc(-c3nc(-c4ccsc4)cs3)c2c1 end up with in this test?
Result: inactive

Problem: Can you look up the reported call for O=C(O)Cc1ccc(O)c(O)c1 for me?
Result: inactive

Problem: Hi, sorry to bother you, what did the test record for COc1ccc2nc(Cl)c(Cn3nnc(Cc4ccccc4)n3)cc2c1 ?
Result: inactive

---

- Tested on: SF-295 CNS
- assay.remarks: NCI-60 one-dose screen, 48 h (100 = growth as untreated, 0 = no growth, -100 = all killed)
- measurement.conditions: 10 µM
This is part of a sample that, as a whole, favours compounds with a hit. Of some 83,000 tested, about 20% had one in any assay.
# note: boundary value 90% maps to Not fulfilled; growth below it maps to Fulfilled

Solved entries (count: 5):
compound	group
COc1ccc2nc3cc(Cl)ccc3c(NCCCNCCO)c2c1	Fulfilled
COc1ccc(-c2cc(-c3ccc(OC)c(OC)c3)nc(SCCCC(=O)NO)n2)cc1	Fulfilled
O=C(CN(C1CCCCC1)C1CCCCC1)Nc1ccc(S(=O)(=O)c2ccc(NC(=O)CN(C3CCCCC3)C3CCCCC3)cc2)cc1	Fulfilled
COc1ccc(NC(=O)C2CC3C=CC2C3)c([N+](=O)[O-])c1 (stereo not drawn)	Not fulfilled
COc1ccccc1/C=N\N/C(N)=N\N=C\c1ccccc1OC	Fulfilled

Problem: Given O=C(N/N=C/c1ccc(Cl)cc1)c1ccccc1Nc1cccc(C(F)(F)F)c1 , is recorded growth strictly lower than 90%?
Result: Fulfilled

Problem: For this compound, is growth lower than 90%? Clc1ccc(/C=C2\CCCC3C2=Nc2ccccc2NC3c2ccc(Cl)cc2)cc1 (stereo not drawn)
Result: Fulfilled

Problem: Does this compound meet the criterion growth < 90%? COc1cc2c(Nc3ccc(S(N)(=O)=O)cc3)ncnc2c(OC)c1OC
Result: Not fulfilled

Problem: Is 90% strictly greater than the compound's reported growth? compound: CN(C)CCOc1cccc(-c2nc3sccn3c2-c2ccnc(S(C)(=O)=O)n2)c1
Result: Not fulfilled

Problem: For COc1ccc(C(=O)N/N=C/c2cc(C(F)(F)F)ccc2Cl)cc1 , is the recorded growth below the cut-off of 90%?
Result: Fulfilled

Problem: Find out if reported growth for CC(C)c1cc(N=O)cc(C(C)C)c1O is less than 90%
Result: Not fulfilled

Problem: Regarding CC1=NN(C(=O)c2nn(-c3ccc(Cl)cc3)cc2O)C(=O)C1 , kindly confirm whether its growth is beneath 90%.
Result: Fulfilled

Problem: # check: growth < 90% for Cc1cccc(N=Cc2ccccc2O)c1C
Result: Not fulfilled

---

- Tested on: OVCAR-4 ovarian
- assay.remarks: NCI-60 one-dose screen, 48 h (100 = growth as untreated, 0 = no growth, -100 = all killed)
- measurement.conditions: 10 µM
The panel holds about 83,000 compounds, 20% with a hit somewhere; the sample as a whole holds those more often. Activity calls are given as the source filed them. Rule for the calls: active = growth percent below 10; inactive = the rest.
reported.endpoint: growth

Take a look at these entries with their results.
                                   compound           target  reported_endpoint          measured
0  O=C(CCCCNC(=O)c1nc(-c2ccccc2)n(-c2ccccc2)n1)NO  OVCAR-4 ovarian             growth  90.6% (inactive)
1      O=C(O)COc1c(Cl)cc([N+](=O)[O-])cc1Cl  OVCAR-4 ovarian             growth   108% (inactive)

Problem: Report growth for c1ccc(/C(=N\Nc2ccc3ccccc3n2)c2ccccn2)cc1 please.
Result: 10.1% (inactive)

---

- Tested on: HCT-116 colon
- assay.remarks: NCI-60 one-dose screen, 48 h (100 = growth as untreated, 0 = no growth, -100 = all killed)
- measurement.conditions: 10 µM
This is part of a sample that, as a whole, favours compounds with a hit. Of some 83,000 tested, about 20% had one in any assay. Active and inactive are the calls of the source. Rule for the calls: active = growth percent below 10; inactive = the rest.
reported.endpoint: growth

molecule	growth
COc1cc2c(cc1OC)C(C(CCCCCC(CCC(C)C)C1NCCc3cc(OC)c(OC)cc31)CCC(C)C)NCC2 (stereo unspecified)	-100% (active)
O=C(CCl)Oc1ccc(OC(=O)CCl)cc1	94.5% (inactive)
O=[N+]([O-])c1ccc(NCSc2ccc(Cl)cc2)cc1	86.3% (inactive)
CN(C)CCN(Cc1ccccc1)c1ccc2ccccc2n1	90.4% (inactive)
COc1cc(C(=O)/C=C/c2c[nH]c3ccccc23)cc(OC)c1OC	12.2% (inactive)
C[C@]12CCC3c4ccc(O)cc4C[C@@H](CCCCCCCCCS(=O)CCCC(F)(F)C(F)(F)F)C3C1CC[C@@H]2O (stereo partly specified)	71.4% (inactive)

Problem: What value of measured growth is listed for NC1=NC(c2ccc(Cl)cc2)C2=C(N1)/C(=C/c1ccc(Cl)cc1)CCC2 (stereo unspecified) ?
Result: -72.1% (active)

Problem: Entry C/C=C/C1=CN2C(=O)c3cc(OC4OC(C)C(NC)C(C)(O)C4O)c(C)c(O)c3N=C[C@@H]2C1 (stereo partly specified) : reported growth = ?
Result: 1.59% (active)

Problem: Need growth of CCN(CC)CCOc1cccc2c1C(=O)c1ccccc1C2=O , thanks.
Result: 70.4% (inactive)

Problem: Requested read-out: growth. Entry: NC(N)=N/N=C(\c1ccccc1)C(O)c1ccccc1 (stereo unspecified)
Result: 100% (inactive)

Problem: For CCCCCCCCCCOC(c1ccccc1)c1ccccc1 , what is its reported growth?
Result: 58.6% (inactive)

---

- Test system: SR leukemia
- assay.remarks: NCI-60 one-dose screen, 48 h (100 = growth as untreated, 0 = no growth, -100 = all killed)
- measurement.conditions: 10 µM
The panel holds about 83,000 compounds, 20% with a hit somewhere; the sample as a whole holds those more often.
# label = yes if growth < 60% else no

Would you please look over these solved cases?
compound	group
c1ccc(/C(=N\Nc2ccc3ccccc3n2)c2ccccn2)cc1	yes
C/C=C/CSC(C)(C)C(=O)NC	no

Problem: Just wondering, is growth of CC[C@@H](C(=O)[C@@H](C)[C@@H](O)[C@H](C)[C@@H]1O[C@@H]([C@@H](CC)C(=O)O)CC[C@@H]1C)C1O[C@]2(C=CC(=O)[C@]3(CC[C@@](C)([C@H]4CC[C@](O)(CC)[C@H](C)O4)O3)O2)[C@H](C)C[C@@H]1C (stereo not given in full) below 60%?
Result: yes

Problem: Report whether reported growth is lower than 60% (strictly) for O=C(O)c1ccc(-n2cc(CNc3ccc(Cl)cc3)c(-c3ccccc3)n2)cc1
Result: no

Problem: Find out if reported growth for CCOC(=O)Cn1c(=O)c2sc3ncccc3c2n2nnc(-c3ccccc3)c12 is less than 60%
Result: no

Problem: Below 60% on growth? Entry COc1ccc(-c2cc(-c3ccc(Cl)cc3)nc(SCCCC(=O)NO)n2)cc1OC
Result: yes
